# Test system: Human adenovirus 2
# Assay notes: Inhibitory activity against Adenovirus type 2 proteinase
# Format: functional
# Parameters: concentration or dose not given beside the values
Peptide text beside a SMILES is read from it. * marks the point of attachment. Cbz = O=C(OCc1ccccc1)*; Boc = CC(C)(C)OC(=O)*; OtBu = CC(C)(C)O*
Readout: Inhibition (%)
Give bare numbers, in %.

CCOC(=O)CNC(=O)CNC(=O)[C@H](C)NC(=O)[C@H](CC(C)C)NC(=O)OCc1ccccc1 (Cbz-LAGG-OEt) ... 67
CC(C)C[C@H](NC(=O)OCc1ccccc1)C(=O)N[C@@H](C)C(=O)NCC(=O)NCC#N ... 95
COC(CNC(=O)CNC(=O)[C@H](C)NC(=O)[C@H](CC(C)C)NC(=O)OCc1ccccc1)OC ... 59
COC(CNC(=O)CNC(=O)[C@H](C)NC(=O)[C@H](CC(C)C)NC(=O)OC(C)(C)C)OC ... 59
CC(C)C[C@H](NC(=O)C(F)(F)F)C(=O)N[C@@H](C)C(=O)NCC(=O)NCC#N ... 50
C[C@H](NC(=O)C(F)(F)F)C(=O)NCC(=O)NCC#N ... 5

Each molecule below has a recorded value; state its Inhibition.
1. CC(C)C[C@H](NC(=O)OC(C)(C)C)C(=O)N[C@@H](C)C(=O)NCC(=O)NCC(=O)OC(C)(C)C (Boc-LAGG-OtBu)
2. COC(=O)CNC(=O)CNC(=O)[C@H](C)NC(=O)[C@H](CC(C)C)NC(=O)OCc1ccccc1 (Cbz-LAGG-OMe)

1: 40; 2: 72
